system name: WIZ (Homo sapiens, UniProt O95785+Q96SW2)
Construct: expressed in transfected cells
Sequence (O95785 whole entry): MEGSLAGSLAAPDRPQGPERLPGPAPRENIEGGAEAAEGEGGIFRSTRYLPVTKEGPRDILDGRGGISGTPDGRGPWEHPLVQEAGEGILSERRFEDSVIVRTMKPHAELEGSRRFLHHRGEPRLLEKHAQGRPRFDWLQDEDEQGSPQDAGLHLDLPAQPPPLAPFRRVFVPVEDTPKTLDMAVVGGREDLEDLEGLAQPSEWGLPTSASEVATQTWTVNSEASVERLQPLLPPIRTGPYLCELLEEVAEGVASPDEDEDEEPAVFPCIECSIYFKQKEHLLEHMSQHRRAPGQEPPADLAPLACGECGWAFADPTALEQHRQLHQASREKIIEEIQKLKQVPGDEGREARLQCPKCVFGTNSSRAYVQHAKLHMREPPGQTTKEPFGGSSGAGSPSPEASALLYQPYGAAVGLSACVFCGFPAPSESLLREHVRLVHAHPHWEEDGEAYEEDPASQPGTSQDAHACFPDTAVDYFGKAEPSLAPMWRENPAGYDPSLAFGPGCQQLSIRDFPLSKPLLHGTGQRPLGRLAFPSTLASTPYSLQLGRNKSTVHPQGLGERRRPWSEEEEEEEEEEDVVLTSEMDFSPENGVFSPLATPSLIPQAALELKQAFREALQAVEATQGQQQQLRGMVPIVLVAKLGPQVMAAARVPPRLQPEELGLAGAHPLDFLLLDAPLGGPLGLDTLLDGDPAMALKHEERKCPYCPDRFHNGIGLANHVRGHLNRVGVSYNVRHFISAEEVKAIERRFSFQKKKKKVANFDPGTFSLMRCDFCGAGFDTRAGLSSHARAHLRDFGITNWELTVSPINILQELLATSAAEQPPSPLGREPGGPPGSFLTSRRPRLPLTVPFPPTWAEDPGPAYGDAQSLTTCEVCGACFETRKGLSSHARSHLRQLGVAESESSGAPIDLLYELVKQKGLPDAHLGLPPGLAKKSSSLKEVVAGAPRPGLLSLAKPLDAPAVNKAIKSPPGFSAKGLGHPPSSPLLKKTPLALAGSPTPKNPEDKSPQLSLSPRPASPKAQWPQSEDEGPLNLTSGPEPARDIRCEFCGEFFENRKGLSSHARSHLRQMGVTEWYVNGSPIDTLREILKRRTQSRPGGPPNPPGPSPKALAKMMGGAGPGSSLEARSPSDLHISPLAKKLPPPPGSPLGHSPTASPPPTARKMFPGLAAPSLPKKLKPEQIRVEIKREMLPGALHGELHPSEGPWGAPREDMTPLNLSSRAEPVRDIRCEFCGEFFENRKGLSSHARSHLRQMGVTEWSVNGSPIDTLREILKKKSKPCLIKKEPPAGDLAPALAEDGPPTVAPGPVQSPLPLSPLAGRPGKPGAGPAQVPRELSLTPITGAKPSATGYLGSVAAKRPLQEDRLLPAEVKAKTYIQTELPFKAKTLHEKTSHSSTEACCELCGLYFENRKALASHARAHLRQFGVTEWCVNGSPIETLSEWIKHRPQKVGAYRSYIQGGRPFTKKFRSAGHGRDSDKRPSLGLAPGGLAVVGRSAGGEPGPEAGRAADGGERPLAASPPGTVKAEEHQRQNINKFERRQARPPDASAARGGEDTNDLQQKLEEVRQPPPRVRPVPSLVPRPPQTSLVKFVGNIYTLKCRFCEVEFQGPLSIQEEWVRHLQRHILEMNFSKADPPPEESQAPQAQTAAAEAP
Sequence (Q96SW2 whole entry): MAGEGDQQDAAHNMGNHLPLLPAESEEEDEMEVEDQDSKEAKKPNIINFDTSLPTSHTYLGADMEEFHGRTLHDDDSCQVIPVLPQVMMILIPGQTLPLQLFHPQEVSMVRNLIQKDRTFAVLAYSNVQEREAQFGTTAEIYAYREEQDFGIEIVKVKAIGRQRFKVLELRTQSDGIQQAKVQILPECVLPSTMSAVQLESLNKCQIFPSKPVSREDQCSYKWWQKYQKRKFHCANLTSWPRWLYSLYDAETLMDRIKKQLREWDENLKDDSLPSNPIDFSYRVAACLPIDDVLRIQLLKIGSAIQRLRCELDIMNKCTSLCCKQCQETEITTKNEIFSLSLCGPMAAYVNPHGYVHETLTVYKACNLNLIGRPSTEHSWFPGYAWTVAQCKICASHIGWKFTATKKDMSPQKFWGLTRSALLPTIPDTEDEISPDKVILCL
Sequence (Q16531 whole entry partner): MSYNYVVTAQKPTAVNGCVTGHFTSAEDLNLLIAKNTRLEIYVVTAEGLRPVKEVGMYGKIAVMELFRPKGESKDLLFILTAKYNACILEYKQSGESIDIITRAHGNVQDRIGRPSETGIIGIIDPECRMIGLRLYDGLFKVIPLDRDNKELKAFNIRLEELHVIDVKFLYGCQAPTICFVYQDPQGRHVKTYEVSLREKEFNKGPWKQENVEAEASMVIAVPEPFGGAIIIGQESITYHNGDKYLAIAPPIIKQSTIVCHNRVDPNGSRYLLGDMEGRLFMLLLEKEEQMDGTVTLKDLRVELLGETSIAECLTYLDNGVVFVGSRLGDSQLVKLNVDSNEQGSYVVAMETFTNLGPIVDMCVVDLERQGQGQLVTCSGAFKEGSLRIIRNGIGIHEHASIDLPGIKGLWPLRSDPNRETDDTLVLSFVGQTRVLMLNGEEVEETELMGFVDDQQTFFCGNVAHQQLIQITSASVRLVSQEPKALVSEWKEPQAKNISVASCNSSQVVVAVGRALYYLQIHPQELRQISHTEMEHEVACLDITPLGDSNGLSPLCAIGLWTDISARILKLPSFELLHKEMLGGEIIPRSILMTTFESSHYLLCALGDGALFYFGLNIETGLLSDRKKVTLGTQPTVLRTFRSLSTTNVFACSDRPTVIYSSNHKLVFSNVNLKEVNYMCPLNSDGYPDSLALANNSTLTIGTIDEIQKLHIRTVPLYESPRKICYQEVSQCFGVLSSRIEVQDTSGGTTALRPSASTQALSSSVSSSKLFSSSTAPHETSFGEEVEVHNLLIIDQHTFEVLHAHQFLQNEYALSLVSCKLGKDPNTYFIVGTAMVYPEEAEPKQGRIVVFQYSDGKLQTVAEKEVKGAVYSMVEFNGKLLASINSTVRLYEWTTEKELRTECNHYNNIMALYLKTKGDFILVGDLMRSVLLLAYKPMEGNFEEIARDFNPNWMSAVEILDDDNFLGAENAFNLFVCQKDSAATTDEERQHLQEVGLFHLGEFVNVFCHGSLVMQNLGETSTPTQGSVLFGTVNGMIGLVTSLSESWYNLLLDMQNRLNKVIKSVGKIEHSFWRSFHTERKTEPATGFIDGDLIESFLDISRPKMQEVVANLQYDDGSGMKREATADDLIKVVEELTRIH
experiment: Quantification of WIZ protein levels in HiBit tag fusion protein assay (WIZ HiBit assay in 293T cells)
Type: cell-based
run parameters: WIZ HiBit assay in 293T cells; 10-point, 5-fold dilution, highest concentration 25 μM, about 18 hours; read-out: WIZ AC50
Measured DC50 by item
endpoint label: DC50 (µM)

- molecule: "CC[C@@H]1CN(CC(C)C)CCN1Cc1ccc2onc(N3CCC(=O)NC3=O)c2c1"
  endpoint label: "DC50"
  readout value: 0.008
- molecule: "O=C1CCN(c2noc3ccc(CN4CC5CCC4CN5CC4CCOCC4)cc23)C(=O)N1 (single isomer, unassigned) [Example 122]"
  endpoint label: "DC50"
  readout value: 0.044
- molecule: "Cc1c(CN2CCN(CC3CC3)[C@@H](C)C2)ccc2onc(N3CCC(=O)NC3=O)c12"
  endpoint label: "DC50"
  readout value: 0.006
- molecule: "CN1CCC(Cc2ccc3onc(N4CCC(=O)NC4=O)c3c2)CC1"
  endpoint label: "DC50"
  readout value: 0.045

* * *

system name: WIZ (Homo sapiens, UniProt O95785+Q96SW2)
Construct: expressed in transfected cells
experiment: Quantification of WIZ protein levels in HiBit tag fusion protein assay (WIZ HiBit assay in 293T cells)
Format: cell-based
run parameters: WIZ HiBit assay in 293T cells; 10-point, 5-fold dilution, highest concentration 25 μM, about 18 hours; read-out: WIZ AC50
Measured DC50 by item

- compound: "CC(C)(C)OC(=O)N1[C@@H]2CC[C@H]1CC(Cc1ccc3onc(N4CCC(=O)NC4=O)c3c1)C2 (single isomer, unassigned) [Example 54]"
  system name: "WIZ (Homo sapiens, UniProt O95785+Q96SW2)"
  DC50 / µM: 0.196
- compound: "O=C1CCN(c2noc3ccc(CC4C[C@H]5CC[C@@H](C4)N5)cc23)C(=O)N1 (stereo partly shown) [Example 57]"
  system name: "WIZ (Homo sapiens, UniProt O95785+Q96SW2)"
  DC50 / µM: 0.649
- compound: "C[C@@H]1CN(C)CCN1Cc1ccc2onc(N3CCC(=O)NC3=O)c2c1 [Example 65]"
  system name: "WIZ (Homo sapiens, UniProt O95785+Q96SW2)"
  DC50 / µM: 0.089
- compound: "O=C1CCN(c2noc3ccc(CN4CCN5C(=O)COC[C@H]5C4)cc23)C(=O)N1 [Example 116]"
  system name: "WIZ (Homo sapiens, UniProt O95785+Q96SW2)"
  DC50 / µM: 0.193
- compound: "CCS(=O)(=O)N1CCN(Cc2ccc3onc(N4CCC(=O)NC4=O)c3c2)[C@H](C)C1 [Example 72]"
  system name: "WIZ (Homo sapiens, UniProt O95785+Q96SW2)"
  DC50 / µM: 0.098
- compound: "C[C@H]1CN(Cc2ccc3onc(N4CCC(=O)NC4=O)c3c2)CCN1CC1CCOCC1 [Example 31]"
  system name: "WIZ (Homo sapiens, UniProt O95785+Q96SW2)"
  DC50 / µM: 0.0069
- compound: "O=C1CCN(c2noc3ccc(CN4CCN(CC5CCCCC5)CC4)cc23)C(=O)N1 [Example 21]"
  system name: "WIZ (Homo sapiens, UniProt O95785+Q96SW2)"
  DC50 / µM: 0.019
- compound: "CS(=O)(=O)N1[C@@H]2CC[C@H]1CC(Cc1ccc3onc(N4CCC(=O)NC4=O)c3c1)C2 (stereo partly shown) [Example 60]"
  system name: "WIZ (Homo sapiens, UniProt O95785+Q96SW2)"
  DC50 / µM: 0.009
- compound: "CC(C)CN1CCN(Cc2ccc3onc(N4CCC(=O)NC4=O)c3c2)C[C@H]1C [Example 34]"
  system name: "WIZ (Homo sapiens, UniProt O95785+Q96SW2)"
  DC50 / µM: 0.04
- compound: "CN1CC2CCC1CN2Cc1ccc2onc(N3CCC(=O)NC3=O)c2c1 (single isomer, unassigned) [Example 123]"
  system name: "WIZ (Homo sapiens, UniProt O95785+Q96SW2)"
  DC50 / µM: 0.059
- compound: "CCN1CCN(Cc2ccc3onc(N4CCC(=O)NC4=O)c3c2)[C@H](C)C1 [Example 66]"
  system name: "WIZ (Homo sapiens, UniProt O95785+Q96SW2)"
  DC50 / µM: 0.045
- compound: "Cc1ccccc1CN1CCC(Cc2ccc3onc(N4CCC(=O)NC4=O)c3c2)CC1 [Example 12]"
  system name: "WIZ (Homo sapiens, UniProt O95785+Q96SW2)"
  DC50 / µM: 0.044
- compound: "COC[C@H]1CN(Cc2ccc3onc(N4CCC(=O)NC4=O)c3c2)CCN1C [Example 117]"
  system name: "WIZ (Homo sapiens, UniProt O95785+Q96SW2)"
  DC50 / µM: 0.578
- compound: "C[C@H]1CN(S(C)(=O)=O)[C@@H](C)CN1Cc1ccc2onc(N3CCC(=O)NC3=O)c2c1 [Example 105]"
  system name: "WIZ (Homo sapiens, UniProt O95785+Q96SW2)"
  DC50 / µM: 0.373
- compound: "C[C@@H]1CN(S(=O)(=O)N2CCCC2)CCN1Cc1ccc2onc(N3CCC(=O)NC3=O)c2c1 [Example 74]"
  system name: "WIZ (Homo sapiens, UniProt O95785+Q96SW2)"
  DC50 / µM: 0.437
- compound: "CC(C)(C)OC(=O)N1[C@@H]2CC[C@H]1CN(Cc1ccc3onc(N4CCC(=O)NC4=O)c3c1)C2 [Example 99]"
  system name: "WIZ (Homo sapiens, UniProt O95785+Q96SW2)"
  DC50 / µM: 0.45
